Kindly state Inhibition for each of the entries shown.
- System: HepG2
- Measurement Description: GSK_TCMDC: Percent inhibition of human HepG2 cell line. Test compounds present at 10uM.
- Assay type: functional

Below, each entry is followed by its recorded Inhibition result.
molecule=Nc1cc(-c2ccc(Br)cc2O)nc2ccccc12 target_entity=HepG2 reading=23%
molecule=CCOc1ccccc1C(=O)N1CCc2cc3nccc(N4CCN5CCC[C@H]5C4)c3cc21 target_entity=HepG2 reading=4%
molecule=Cc1nc(NCCCn2ccnc2)cc(-c2cncc(-c3ccc(OC(F)(F)F)cc3)c2)n1 target_entity=HepG2 reading=2%

Give one value of Inhibition per listed molecule.
1. COc1ccc(C(=O)Nc2ccc3nc(N4CCCCC4)cc(C)c3c2)cc1[N+](=O)[O-]
2. O=C(Nc1cc(Oc2ccc(O)cc2)cc([N+](=O)[O-])c1)c1cc(-c2ccc(F)cc2)no1

["17%", "61%"]

###

- System: Plasmodium falciparum
- Measurement Description: GSK_TCMDC: Inhibition of Plasmodium falciparum 3D7 in whole red blood cells, using parasite LDH activity as an index of growth. Test compounds present at 2uM
- Type: functional
Result Type: Inhibition (%)
One number for each entry, in %.

Sample answers from the record:
molecule=CCn1ccc2c(N3CCCC3=O)cc(C(=O)N[C@@H](Cc3ccccc3)[C@H](O)CNCc3cccc(OC)c3)cc21 target_entity="Plasmodium falciparum" reading=94
molecule=CCCOc1ccc(NC(=O)c2cccs2)cc1Cl target_entity="Plasmodium falciparum" reading=88
molecule=CCc1cn2c3c(cc(C(=O)N[C@@H](Cc4ccccc4)[C@H](O)CNC4CCCCC4)cc13)N(C)S(=O)(=O)C2.O=CO target_entity="Plasmodium falciparum" reading=99

State recorded Inhibition for all listed molecules.
1. CN(CCN)Cc1ccc(-c2ccc(-c3nc4cc(C(F)(F)F)ccc4[nH]3)s2)cc1.O=C(O)C(F)(F)F
2. Cc1cc(OCC2CCN(c3ncc(C(=O)NC4CC4)cc3Cl)CC2)ccc1F
3. NC(=O)c1cccc(C(=O)Nc2cccc(-c3ccc(-c4nc5ccccc5[nH]4)s3)c2)c1

1. 98
2. 96
3. 95

Provide the reported Inhibition of each entry below, same order.
1. CC(C)c1cccc(OCC2CCN(c3ncc(C(=O)Nc4ccccc4)cc3Cl)CC2)c1
2. Cn1nc(-c2ccc(CNC3CCc4ccccc43)cc2)c2cnc(NCCCN3CCCC3)nc21 (centres undefined)

1. 89
2. 92

Given `CN(CCN)Cc1ccc(-c2ccc(-c3nc4cc(F)ccc4[nH]3)s2)cc1.O=C(O)C(F)(F)F` , state its recorded Inhibition.
96

###

- System: HepG2
- Measurement Description: GSK_TCMDC: Percent inhibition of human HepG2 cell line. Test compounds present at 10uM.
- Assay type: functional
Result Type: Inhibition (%)
Give bare numbers, in %.

Solved entries:
molecule=N=C(N)c1ccc(NCc2cccc(C(=O)O)c2)cc1.O=C(O)C(F)(F)F reading=7
molecule=COc1cccc(NC(=O)NC2CCN(CCCCCNC(=O)/C=C/c3ccc(Cl)c(Cl)c3)CC2)c1 reading=14
molecule=CN1CCC(Oc2cc(NC(=O)Nc3ccc(-c4ccncc4)c(C(F)(F)F)c3)ccc2Cl)CC1 reading=30
molecule=Br.COc1ccc(CCCON2C(=N)N=C(N)NC2(C)C)cc1 reading=61
molecule=O=C(Nc1c(F)cccc1F)c1cccc(-c2nn3ccccc3c2-c2ccnc(Nc3cccc(-c4cnco4)c3)n2)c1 reading=96

// each molecule listed below needs its Inhibition
1. O=C(O)C(F)(F)F.c1ccc2[nH]c(-c3ccc(-c4ccc(CNCC5CCCO5)cc4)s3)nc2c1 (configuration not stated)
2. Cl.Oc1ccc(Cc2cc(Oc3c(I)cc(CCc4ncc[nH]4)cc3I)ccc2O)cc1
3. CCCOc1cc(OCCC)cc(-c2cc(=O)c3ccccc3[nH]2)c1
4. COc1ccc2ncc(F)c(CCN3CC[C@@H](CNCc4cc5c(cn4)OCS5)C3)c2n1.Cl

27
10
33
3

Items follow; give Inhibition for each.
1. CCCCCCN(CCCCCC)CCCCNc1c2ccc(Cl)cc2nc2ccc(OC)cc12.Cl
2. CN(C)c1ccc(-c2csc(C(=O)NC3CCN(CCC(C)(C)C)C3)c2)cc1.O=C(O)C(F)(F)F (configuration not stated)
3. Cc1cc(NC(=O)c2cccs2)ccc1OC1CCN(Cc2ccccc2)C1.O=C(O)C(F)(F)F (configuration not stated)

1. 65
2. 20
3. 7

Dear colleague, could you please provide Inhibition for the molecules listed below?
1. O=C(O)C(F)(F)F.c1ccc(CN2CCC(NCc3ccccc3-c3ccc(CNC4CCCC4)cc3)CC2)cc1
2. COc1ccc2nc(N=C3NC4(c5ccccc5)NC(=Nc5nc6ccc(OC)cc6[nH]5)NC4(c4ccccc4)N3)[nH]c2c1.O=C(O)C(F)(F)F (configuration not stated)
3. CC(C)c1sc(N2CCN(C)CC2)nc1C(=O)NCCc1ccc(Cl)c(Cl)c1.O=C(O)C(F)(F)F
4. CCC1CN2CCc3c([nH]c4ccccc34)C2CC1CC1=NCCc2c1[nH]c1ccccc21.Cl (configuration not stated)
5. COc1ccc(OC)c(Cc2cnc3nc(N)nc(N)c3c2C)c1
6. CCCC(C(=O)OCCNC)(c1ccccc1)c1ccccc1.Cl
7. O=C(Nc1ccccc1O)c1ccc(Oc2cccc(C(=O)Nc3ccccc3O)c2)cc1
8. Cl.O=c1cc(NCCCNCc2cc3ccccc3s2)[nH]c2ccccc12

[38, 0, 10, 20, 68, 7, 33, 3]

Parameter requested: Inhibition. Apply to each item below.
1. Cl.O=C(NCCCCN1CCC(c2ccc3c(c2OC(=O)c2ccc(NC(=O)c4ccc(Cl)cc4)cc2)CCCC3)CC1)c1ccc(NC(=O)c2ccc(Cl)cc2)cc1
2. CC1CCCC(NCc2c(O)ccc3ccccc23)C1.Cl (configuration not stated)
3. CCc1ccccc1N=C1c2c(cccc2[N+](=O)[O-])C(=O)C1C(C)=O (configuration not stated)
4. COc1ccc(Cl)cc1N1CCN(CCCNC(=O)c2ccc(-c3nc4cc(Cl)c(C)cc4[nH]3)s2)CC1
5. CC(C)CCn1c(Sc2ccc(C#N)c([N+](=O)[O-])c2)nnc1-c1ccc(Cl)cc1
6. Cc1cccc2nc(-c3ccc(-c4ccc(CNCC5CCCO5)cc4)cc3)[nH]c12.O=C(O)C(F)(F)F (configuration not stated)

1: 62; 2: 10; 3: 0; 4: 0; 5: 25; 6: 36

Each molecule below has a reported value. Please supply its Inhibition.
1. Cn1cc(CN2CCC(OC(c3ccccc3)c3ccc(Cl)cc3)CC2)cn1 (configuration not stated)
2. COc1cccc(CNC(=O)c2cc(CNCc3ccccc3)ccc2-c2cccc(CNCc3ccc(-c4ccccc4)cc3)c2)c1.O=C(O)C(F)(F)F
3. Cc1cccc2nc(-c3cccc(-c4cccc(NC(=O)NCc5cccc(F)c5)c4)c3)[nH]c12
4. Oc1ccc(Cl)cc1-c1cc(C(F)(F)F)nc(-c2ccccc2)n1

[39, 22, 11, 20]

# per-item lookup of Inhibition; items listed below
1. NC1=NC(c2ccccc2)(c2ccccn2)C(=O)N1CCCc1ccccc1.O=C(O)C(F)(F)F (configuration not stated)
2. Cc1ccc2[nH]c(C)cc(=NN=Cc3ccc(Cl)cc3)c2c1
3. CN(C)c1ccc(C2c3[nH]cnc3CCN2C(=O)Nc2cccc([N+](=O)[O-])c2)cc1 (configuration not stated)
4. O=C(NCCc1cccc(Cl)c1Cl)c1cnc(N2CCN(c3ccncc3)CC2)c(Cl)c1.O=C(O)C(F)(F)F
5. Nc1cccc(CNCc2cccc(-c3cccc(-c4nc5ccccc5[nH]4)c3)c2)c1.O=C(O)C(F)(F)F
6. COc1ccccc1CNC(=O)C(=O)Nc1c(-c2ccccc2)[nH]c2ccccc12
7. CC1(C)N=C(N)N=C(N)C1c1ccc(Cl)c(Cl)c1.Cl (configuration not stated)

1: 0; 2: 0; 3: 0; 4: 47; 5: 1; 6: 0; 7: 47

These data points were gathered from ChEMBL document CHEMBL1157539.
